# Assay System: T1, recombinant human HER2 extracellular domain protein (human, UniProt P04626 23-652)
# T1 construct: range 23-652; Range is printed for the immunogen/panning protein; also called ErbB2; recombinant HER2 protein
# Method Notes: BLI, Protein A capture
Reported Property: kon (M⁻¹ s⁻¹)
Give bare numbers, in M⁻¹ s⁻¹.

Binder	Units Symbol	Endpoint Value
Hu2126-H2K1 (antibody, human IgG1, V domains shown) VH: QVQLVQSGSELKKPGASVKVSCKASGYTFTDYSMHWVRQAPGQGLEWMGWINTETGEPTYADDFKGRFVFSLDTSVSTAYLQISSLKAEDTAVYFCVRVGRYDYAMDYWGQGTTVTVSS VL: DIQMTQSPSSLSASVGDRVTITCKASQDVYTAVAWYQQKPGKAPKLLINSASYRYTGVPSRFSGSGSGTDFTLTISSLQPEDFATYYCQQHYSTPPTFGGGTKVEIK	M⁻¹ s⁻¹	99600
2126-Hu-H28 (antibody, IgG1, V domains shown, IgG1/Cκ) VH: QVQLVQSGSELKKPGASVKVSCKASGYTFTDYSMHWVRQAPGQGLEWMGWINTYTGEPTYADDFKGRFVFSLDTSVSTAYLQISSLKAEDTAVYFCVRVGRYDYAMDYWGQGTTVTVSS VL: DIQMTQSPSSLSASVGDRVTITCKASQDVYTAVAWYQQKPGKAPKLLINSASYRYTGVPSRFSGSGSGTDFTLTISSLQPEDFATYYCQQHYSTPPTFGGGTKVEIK	M⁻¹ s⁻¹	114000

// next item, kon requested
Please look up its kon: 2126-Hu-H47 (antibody, IgG1, name in Kabat numbering, V domains shown, IgG1/Cκ) VH: QVQLVQSGSELKKPGASVKVSCKASGYTFTDYSMHWVRQAPGQGLEWMGWINTETGEPTYADDFKGRFVFSLDTSVSTAYLQISSLKAEDTAVYFCVRVGFYDYAMDYWGQGTTVTVSS VL: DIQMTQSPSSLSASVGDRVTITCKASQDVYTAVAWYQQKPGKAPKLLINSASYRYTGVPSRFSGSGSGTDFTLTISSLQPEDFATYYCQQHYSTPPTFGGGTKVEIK 204000
